Reference for the values: patent CN118525034A

Target: T1, 犬IL-31RA ECD-10His (犬 (canine))
T1 chain: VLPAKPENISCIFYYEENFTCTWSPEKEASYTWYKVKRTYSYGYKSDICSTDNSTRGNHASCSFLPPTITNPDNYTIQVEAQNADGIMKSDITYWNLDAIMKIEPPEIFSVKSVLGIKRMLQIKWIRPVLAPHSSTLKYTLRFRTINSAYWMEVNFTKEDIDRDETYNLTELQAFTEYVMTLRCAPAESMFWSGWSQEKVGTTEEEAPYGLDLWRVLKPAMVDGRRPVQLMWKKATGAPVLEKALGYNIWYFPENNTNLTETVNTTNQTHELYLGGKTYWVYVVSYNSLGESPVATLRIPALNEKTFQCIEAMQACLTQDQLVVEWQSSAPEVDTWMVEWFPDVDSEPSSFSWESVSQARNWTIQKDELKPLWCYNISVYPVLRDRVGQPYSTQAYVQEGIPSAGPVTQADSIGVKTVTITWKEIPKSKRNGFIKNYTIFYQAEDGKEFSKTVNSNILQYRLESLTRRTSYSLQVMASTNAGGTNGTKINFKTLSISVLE
Experiment: Octet BLI, biotinylated canine IL-31RA on SA biosensor, mAb 100-3.13 nM, 1:1 model

{"binder": "51F8 (antibody, V domains shown) VH: EVQLQQSVAELVRPGASVKLSCTASGFNIKNTFIHWVKQRPEQGLEWIGRIDPANGNTKYAPKFQGRATLTADTSSNTAYLQLSSLTSEDTAIYYCARYYYVSSYFDVWGTGTTVTVSS VL: SIVMTQTPKFLLVSAGDRVTITCKASQSVTNDVTWYQQKPGQSPKLLIYYASNRYTGVPDRFTGSGYGTDFTFTISTVQAEDLAVYFCQQDYSSPFTFGSGTKLEIK", "kon (M⁻¹ s⁻¹)": 684000}
